tested on: AVEFA; assay: Post-emergence action against AVEFA; assay type: in vivo, Avena fatua; conditions: post-emergence, dosage 80 g/ha, visual assessment about 3 weeks after treatment vs untreated controls
QUANTITY KIND: Post-emergence action against AVEFA (herbicidal action in percent) (%)
Reply with just the number (in %).

Readout Post-emergence action against AVEFA (herbicidal action in percent) for CCC(=O)c1c(C(F)(F)F)ccc(C(=O)Nc2nnnn2CC)c1C [2-15] , test system AVEFA, was 80

Readout Post-emergence action against AVEFA (herbicidal action in percent) for CCCn1nnnc1NC(=O)c1ccc(SC)c(C(=O)C2CC2)c1Cl [3-123] , test system AVEFA, was 100

Readout Post-emergence action against AVEFA (herbicidal action in percent) for CCCn1nnnc1NC(=O)c1ccc(S(C)(=O)=O)c(C(=O)C2CC2)c1Cl [3-129] , test system AVEFA, was 90

Readout Post-emergence action against AVEFA (herbicidal action in percent) for CCn1nnnc1NC(=O)c1ccc(S(C)(=O)=O)c(C(C)=O)c1Cl [2-127] , test system AVEFA, was 90

Readout Post-emergence action against AVEFA (herbicidal action in percent) for Cn1nnnc1NC(=O)c1ccc(C(F)(F)F)c(C(=O)CCl)c1Cl [1-145] , test system AVEFA, was 90

###

tested on: STEME; assay: Post-emergence action against STEME; type: in vivo, Stellaria media; conditions: post-emergence, dosage 80 g/ha
QUANTITY KIND: Post-emergence action against STEME
Lab note: record the figure alone, no unit after it.

Measured Post-emergence action against STEME of CCn1nnnc1NC(=O)c1ccc(Cl)c(C(=O)C(C)C)c1Cl [2-280] : 100

Measured Post-emergence action against STEME of CCCC(=O)c1c(C(F)(F)F)ccc(C(=O)Nc2nnnn2CC)c1C [2-16] : 100

Measured Post-emergence action against STEME of Cn1nnnc1NC(=O)c1ccc(Cl)c(C(=O)C2CCCC2)c1Cl [1-281] : 100

Measured Post-emergence action against STEME of CC1CC1C(=O)c1c(C(F)(F)F)ccc(C(=O)Nc2nnnn2C)c1Cl (centres unmarked) [1-148] : 100

Measured Post-emergence action against STEME of CCCn1nnnc1NC(=O)c1ccc(C(F)F)c(C(=O)C2CC2)c1SC [3-67] : 100

Measured Post-emergence action against STEME of CCCn1nnnc1NC(=O)c1ccc(C(F)F)c(C(=O)C2CC2)c1Cl [3-168] : 100

Measured Post-emergence action against STEME of CCC(=O)c1c(C)ccc(C(=O)Nc2nnnn2CC)c1Cl [2-135] : 100

Measured Post-emergence action against STEME of CCn1nnnc1NC(=O)c1ccc(C(F)(F)F)c(C(=O)C2CC2C)c1Cl (centres unmarked) [2-148] : 90

Measured Post-emergence action against STEME of CCCn1nnnc1NC(=O)c1ccc(C)c(C(C)=O)c1C [3-1] : 90

Measured Post-emergence action against STEME of Cn1nnnc1NC(=O)c1ccc(C(F)(F)F)c(C(=O)CCl)c1Cl [1-145] : 100

Measured Post-emergence action against STEME of CCn1nnnc1NC(=O)c1ccc(C(F)F)c(C(=O)C2CC2)c1SC [2-67] : 100

Measured Post-emergence action against STEME of CCCn1nnnc1NC(=O)c1ccc(C(F)(F)F)c(C(C)=O)c1Cl [3-137] : 100

Measured Post-emergence action against STEME of COc1ccc(C(=O)c2c(Cl)ccc(C(=O)Nc3nnnn3C)c2Cl)cc1 [1-283] : 80

Measured Post-emergence action against STEME of CSc1c(C(=O)Nc2nnnn2C)ccc(C(F)(F)F)c1C(=O)C1CCC1 [1-284] : 100

Measured Post-emergence action against STEME of CCn1nnnc1NC(=O)c1ccc(C(F)(F)F)c(C(=O)C2CCCC2)c1Cl [2-154] : 90

Measured Post-emergence action against STEME of Cn1nnnc1NC(=O)c1ccc(C(F)(F)F)c(C(=O)C2CCCC2)c1Cl [1-154] : 90

Measured Post-emergence action against STEME of CCCC(=O)c1c(C(F)(F)F)ccc(C(=O)Nc2nnnn2CC)c1Cl [2-139] : 100

Measured Post-emergence action against STEME of CCCn1nnnc1NC(=O)c1ccc(C(F)(F)F)c(C(C)=O)c1C [3-14] : 100

Measured Post-emergence action against STEME of CCCn1nnnc1NC(=O)c1ccc(C(F)(F)F)c(C(=O)C2CC2)c1Br [3-197] : 100

Measured Post-emergence action against STEME of CCn1nnnc1NC(=O)c1ccc(C(F)(F)F)c(C(=O)CCl)c1C [2-22] : 90

###

test system: ABUTH; experiment: Pre-emergence action against ABUTH; assay type: in vivo, Abutilon theophrasti; conditions: pre-emergence, dosage 320 g/ha, scored visually after 3 weeks vs untreated controls
Please go through the items and note down their Pre-emergence action against ABUTH (herbicidal activity).
Reply with just the number (in %).

Measured Pre-emergence action against ABUTH (herbicidal activity) of CCCn1nnnc1NC(=O)c1ccc(C)c(C(=O)C2CC2)c1Cl : 80

Measured Pre-emergence action against ABUTH (herbicidal activity) of CCCC(=O)c1c(C(F)(F)F)ccc(C(=O)Nc2nnnn2CC)c1C : 100

Measured Pre-emergence action against ABUTH (herbicidal activity) of CCCn1nnnc1NC(=O)c1ccc(C(F)(F)F)c(C(C)=O)c1Cl : 100

Measured Pre-emergence action against ABUTH (herbicidal activity) of CCn1nnnc1NC(=O)c1ccc(C(F)(F)F)c(C(=O)c2cc(F)cc(F)c2)c1Cl : 80

Measured Pre-emergence action against ABUTH (herbicidal activity) of CCn1nnnc1NC(=O)c1ccc(C(F)(F)F)c(C(=O)C(F)F)c1Cl : 100

Measured Pre-emergence action against ABUTH (herbicidal activity) of CCCn1nnnc1NC(=O)c1ccc(S(C)(=O)=O)c(C(C)=O)c1C : 100

Measured Pre-emergence action against ABUTH (herbicidal activity) of CCC(=O)c1c(C(F)(F)F)ccc(C(=O)Nc2nnnn2CC)c1C : 100

Measured Pre-emergence action against ABUTH (herbicidal activity) of CCn1nnnc1NC(=O)c1ccc(C(F)F)c(C(C)=O)c1SC : 100

Measured Pre-emergence action against ABUTH (herbicidal activity) of CCn1nnnc1NC(=O)c1ccc(SC)c(C(C)=O)c1Cl : 100

Measured Pre-emergence action against ABUTH (herbicidal activity) of CCn1nnnc1NC(=O)c1ccc(C(F)F)c(C(C)=O)c1Cl : 100

Measured Pre-emergence action against ABUTH (herbicidal activity) of CCCn1nnnc1NC(=O)c1ccc(C(F)F)c(C(C)=O)c1SC : 100

Measured Pre-emergence action against ABUTH (herbicidal activity) of CCCn1nnnc1NC(=O)c1ccc(C(F)(F)F)c(C(=O)CC)c1C : 100

Measured Pre-emergence action against ABUTH (herbicidal activity) of CCn1nnnc1NC(=O)c1ccc(Cl)c(C(C)=O)c1Cl : 100

Measured Pre-emergence action against ABUTH (herbicidal activity) of CCCn1nnnc1NC(=O)c1ccc(C(F)(F)F)c(C(=O)C2CCC2)c1SC : 100

Measured Pre-emergence action against ABUTH (herbicidal activity) of CCn1nnnc1NC(=O)c1ccc(C(F)(F)F)c(C(C)=O)c1Br : 100

Measured Pre-emergence action against ABUTH (herbicidal activity) of Cn1nnnc1NC(=O)c1ccc(C(F)(F)F)c(C(=O)CCl)c1Cl : 100

Measured Pre-emergence action against ABUTH (herbicidal activity) of CCn1nnnc1NC(=O)c1ccc(C(F)(F)F)c(C(=O)C2CCCCC2)c1Cl : 100

Measured Pre-emergence action against ABUTH (herbicidal activity) of CCCn1nnnc1NC(=O)c1ccc(C(F)(F)F)c(C(=O)C(F)F)c1Cl : 100

Measured Pre-emergence action against ABUTH (herbicidal activity) of CCCn1nnnc1NC(=O)c1ccc(C(F)(F)F)c(C(=O)C2CC2)c1OC : 100

Measured Pre-emergence action against ABUTH (herbicidal activity) of CCCn1nnnc1NC(=O)c1ccc(C(F)F)c(C(=O)C2CC2)c1Cl : 100

###

test system: AVEFA; assay: Post-emergence action against AVEFA; type: in vivo, Avena fatua; conditions: post-emergence, dosage 80 g/ha, visual assessment about 3 weeks after treatment vs untreated controls
Please go through the items and note down their Post-emergence action against AVEFA (herbicidal action in percent).
Reply with just the number (in %).

Readout Post-emergence action against AVEFA (herbicidal action in percent) for CCn1nnnc1NC(=O)c1ccc(C(F)(F)F)c(C(=O)C2(C)CC2)c1Cl , test system AVEFA, was 80

Readout Post-emergence action against AVEFA (herbicidal action in percent) for CCn1nnnc1NC(=O)c1ccc(C(F)F)c(C(=O)C2CC2)c1Cl , test system AVEFA, was 100

Readout Post-emergence action against AVEFA (herbicidal action in percent) for CCn1nnnc1NC(=O)c1ccc(SC)c(C(=O)C2CC2)c1Cl , test system AVEFA, was 100

Readout Post-emergence action against AVEFA (herbicidal action in percent) for CCn1nnnc1NC(=O)c1ccc(C(F)F)c(C(=O)C2CC2)c1SC , test system AVEFA, was 100

Readout Post-emergence action against AVEFA (herbicidal action in percent) for CCCn1nnnc1NC(=O)c1ccc(C(F)(F)F)c(C(=O)C2CC2)c1Cl , test system AVEFA, was 100

Readout Post-emergence action against AVEFA (herbicidal action in percent) for CCn1nnnc1NC(=O)c1ccc(C(F)(F)F)c(C(=O)C2CC2)c1Cl , test system AVEFA, was 90

Readout Post-emergence action against AVEFA (herbicidal action in percent) for CCn1nnnc1NC(=O)c1ccc(S(C)(=O)=O)c(C(C)=O)c1C , test system AVEFA, was 100

Readout Post-emergence action against AVEFA (herbicidal action in percent) for CCCn1nnnc1NC(=O)c1ccc(C(F)F)c(C(=O)C2CC2)c1Cl , test system AVEFA, was 90

Readout Post-emergence action against AVEFA (herbicidal action in percent) for CCn1nnnc1NC(=O)c1ccc(C(F)(F)F)c(C(=O)C2CC2)c1SC , test system AVEFA, was 80
